Biological target: T1, human FM3 (NMUR1) (human)
T1 chain: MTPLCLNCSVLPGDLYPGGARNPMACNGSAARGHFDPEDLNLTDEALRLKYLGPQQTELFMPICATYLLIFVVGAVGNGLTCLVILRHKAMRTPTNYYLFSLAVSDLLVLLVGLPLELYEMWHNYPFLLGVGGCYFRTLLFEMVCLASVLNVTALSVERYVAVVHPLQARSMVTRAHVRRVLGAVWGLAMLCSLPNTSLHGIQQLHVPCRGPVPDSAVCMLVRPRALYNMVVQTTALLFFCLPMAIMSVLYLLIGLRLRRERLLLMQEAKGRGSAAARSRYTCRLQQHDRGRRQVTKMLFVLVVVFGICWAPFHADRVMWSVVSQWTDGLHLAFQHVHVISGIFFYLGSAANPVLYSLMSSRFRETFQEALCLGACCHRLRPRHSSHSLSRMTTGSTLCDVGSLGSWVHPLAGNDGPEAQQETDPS
Assay: competition with 125I-NMU8, membrane fraction, filter binding; only one value in the row, read as the FM3 column
ACP = omega-aminocarboxylic acid linker; AB = not defined here; AP = not defined here
METRIC_NAME: IC50 (nM)

| BINDER | READING_UNIT | IC50 |
| --- | --- | --- |
| {PEG 30 kDa-AP}-YFLFRPRN-NH2 (reading uncertain; also: printed as PEG30k(AP)-NMU-8) [PEG30k(AP)-NMU-8] | nM | 64 |
| {PEG 30 kDa-AB}-YFLFRPRN-NH2 (reading uncertain; also: printed as PEG30k(AB)-NMU-8) [PEG30k(AB)-NMU-8] | nM | 82 |

P. {(PEG20k)2-AP}-YFLFRPRN-NH2 (reading uncertain; also: printed as (PEG20k)2(AP)-NMU-8) [(PEG20k)2(AP)-NMU-8]
Q. {PEG30k-ACP}-YFLFRPRN-NH2 [PEG30k(ACP)-NMU-8]
R. {(PEG20k)2-AB}-YFLFRPRN-NH2 (reading uncertain; also: printed as (PEG20k)2(AB)-NMU-8) [(PEG20k)2(AB)-NMU-8]
Prompt: Arrange the 3 entries by IC50 so the values rise. Write the labels in rank order as requested.
Completion: Q, P, R
